# Test system: IL-8 production in TNF-α + IFN-γ-treated HaCaT cells
# measurement_protocol: IL-8 production in TNF-α + IFN-γ-treated HaCaT cells (ELISA)
# Type: cell-based, human
# assay_setup: Homo sapiens; HaCaT cells pre-incubated with compound 3 h, then TNF-α + IFN-γ (20 ng/mL) 24 h; ELISA
observation_type: IC50

// worked examples, IC50 included
molecule | observation_type | experimental_result
C=CC(C)(C)c1c(O)cc(O)c2c(=O)c3c(CC=C(C)C)c(O)c(O)cc3oc12 | IC50 | > 5 µM
C=CC(C)(C)c1c(OC)c(CC=C(C)C)c2oc3cc(O)c(O)cc3c(=O)c2c1O | IC50 | 1.54 µM
CC(C)=CCc1cc([C@H]2Oc3cc(O)c(CC=C(C)C)c(O)c3C(=O)C2O)c(O)cc1O (stereo partly shown) | IC50 | 4.2 µM
COc1cc(/C=C/C(=O)CC(=O)/C=C/c2ccc(O)c(OC)c2)ccc1O [curcumin, reference compound] | IC50 | 10.3 µM
C=CC(C)(C)c1c(O)cc(O)c2c(=O)c3cc(O)c(O)cc3oc12 | IC50 | 3.7 µM
O=C1CC(c2ccc(O)cc2O)Oc2cc(O)cc(O)c21 (stereo not shown) | IC50 | 62.2 µM

Then this molecule:
Q: Endpoint output: IC50 of C=CC(C)(C)c1c(O)cc2oc3c(CC=C(C)C)c(O)c(O)cc3c(=O)c2c1O . Value?
Result: > 2 µM

----------
Hi there, I'd appreciate the recorded pIC50 for every entry that follows.
# System: IL-8 production in TNF-α + IFN-γ-treated HaCaT cells
# measurement_protocol: IL-8 production in TNF-α + IFN-γ-treated HaCaT cells (ELISA)
# Format: cell-based, human
# assay_setup: Homo sapiens; HaCaT cells pre-incubated with compound 3 h, then TNF-α + IFN-γ (20 ng/mL) 24 h; ELISA
Give bare numbers, as −log10 of the molar value.

compound | experimental_result
CC(C)=CCc1c(O)cc2oc(-c3ccc(O)cc3O)c(CC=C(C)C)c(=O)c2c1O [Compound 6, cudraflavone C] | 5.67

Then this compound:
Q: Endpoint output: pIC50 of C=CC(C)(C)c1c(O)c(CC=C(C)C)c2oc3cc(O)c(O)cc3c(=O)c2c1O [Compound 12, macluraxanthone B] . Value?
Result: 5.10

----------
# System: IL-8 production in TNF-α + IFN-γ-treated HaCaT cells
# measurement_protocol: IL-8 production in TNF-α + IFN-γ-treated HaCaT cells (ELISA)
# Format: cell-based, human
# assay_setup: Homo sapiens; HaCaT cells pre-incubated with compound 3 h, then TNF-α + IFN-γ (20 ng/mL) 24 h; ELISA
Hi there, I'd appreciate the recorded pIC50 for every entry that follows.
Answers are plain numbers, as −log10 of the molar value.

compound_smiles | observation_type | experimental_result
C=CC(C)(C)c1c(OC)cc2oc3cc(O)c(O)cc3c(=O)c2c1O | pIC50 | 5.41

Then this compound:
Q: Endpoint output: pIC50 of CC(C)=CCc1c(O)cc2c(c1O)C(=O)C[C@@H](c1ccc(O)cc1O)O2 . Value?
Result: 5.01

----------
Hi there, I'd appreciate the recorded Cytotoxicity for every entry that follows.
# System: HaCaT cells
# measurement_protocol: Cell Counting Kit (CCK)-8 cell viability / cytotoxicity assay
# assay_setup: CCK-8 assay, 24 h, concentration values that did not result in cytotoxicity

Take each entry in turn and give its Cytotoxicity.
1. C=CC(C)(C)c1c(O)c(CC=C(C)C)c2oc3cc(O)c(O)cc3c(=O)c2c1O
2. C=CC(C)(C)c1c(OC)c(CC=C(C)C)c2oc3cc(O)c(O)cc3c(=O)c2c1O

Result:
[">5 µM", ">2 µM"]

Take each entry in turn and give its Cytotoxicity.
1. O=C1CC(c2ccc(O)cc2O)Oc2cc(O)cc(O)c21 (stereo not shown)
2. C=CC(C)(C)c1c(O)cc2oc3c(CC=C(C)C)c(O)c(O)cc3c(=O)c2c1O
3. C=CC(C)(C)c1c2c(c3oc4cc(O)c(O)cc4c(=O)c3c1O)C=CC(C)(C)O2
4. CC(C)=CCc1c(O)cc2c(c1O)C(=O)C[C@@H](c1cc3c(cc1O)OC(C)(C)C=C3)O2

Result:
1. >80 µM
2. >2 µM
3. >2 µM
4. >40 µM

Q: Requested read-out Cytotoxicity, target or system HaCaT cells, entry CC(C)=CCc1c(-c2ccc(O)cc2O)oc2c(CC=C(C)C)c(O)cc(O)c2c1=O
Result: >40 µM
